Parameter activity at 100 µM: see the listing below.
- Test system: Aβ42 secretion
- Assay Method Text: Primary in vitro screen, CHO-APP695NL,I,his cells, end-specific Aβ40 and Aβ42 ELISAs
- Type: cell-based, Chinese hamster
- Setup Conditions: Cricetulus griseus, 6 h; 100 μM; six-hour culture supernatants; read-out: % Control Aβ40
Value Kind: activity at 100 µM

- Compound: "O=C(O)Cc1ccccc1Nc1c(Cl)cccc1Cl"
  Test System: "Aβ42 secretion"
  Value Kind: "activity at 100 µM"
  Reported Measurement: "88%"
- Compound: "COc1ccc2cc(CCC(C)=O)ccc2c1"
  Test System: "Aβ42 secretion"
  Value Kind: "activity at 100 µM"
  Reported Measurement: "157%"
- Compound: "O=C(O)CCC(=O)c1ccc(-c2ccccc2)cc1"
  Test System: "Aβ42 secretion"
  Value Kind: "activity at 100 µM"
  Reported Measurement: "100%"
- Compound: "CC(C(=O)O)c1ccc(N2Cc3ccccc3C2=O)cc1 (stereo not shown)"
  Test System: "Aβ42 secretion"
  Value Kind: "activity at 100 µM"
  Reported Measurement: "116%"
- Compound: "Cc1ccc(C(C)C)cc2c(C)ccc1-2"
  Test System: "Aβ42 secretion"
  Value Kind: "activity at 100 µM"
  Reported Measurement: "70%"
- Compound: "CC(C(=O)O)c1cccc(Oc2ccccc2)c1 (stereo not shown)"
  Test System: "Aβ42 secretion"
  Value Kind: "activity at 100 µM"
  Reported Measurement: "102%"
- Compound: "CN1C(C(=O)Nc2ccccn2)=C(O)c2ccccc2S1(=O)=O"
  Test System: "Aβ42 secretion"
  Value Kind: "activity at 100 µM"
  Reported Measurement: "142%"
- Compound: "COc1ccc2c(c1)c(CC(=O)OCC(=O)O)c(C)n2C(=O)c1ccc(Cl)cc1"
  Test System: "Aβ42 secretion"
  Value Kind: "activity at 100 µM"
  Reported Measurement: "110%"
- Compound: "COc1ccc2cc([C@H](C)C(=O)O)ccc2c1"
  Test System: "Aβ42 secretion"
  Value Kind: "activity at 100 µM"
  Reported Measurement: "107%"
- Compound: "COc1ccc2c(c1)c(CC(=O)O)c(C)n2C(=O)c1ccc(Cl)cc1"
  Test System: "Aβ42 secretion"
  Value Kind: "activity at 100 µM"
  Reported Measurement: "101%"

---

- Test system: Aβ42 secretion
- Assay Method Text: Primary in vitro screen, CHO-APP695NL,I,his cells, end-specific Aβ40 and Aβ42 ELISAs
- Format: cell-based, Chinese hamster
- Setup Conditions: Cricetulus griseus, 6 h; 10 μM; six-hour culture supernatants; read-out: % Control Aβ40
# activity at 10 µM >= 80% gives rule met, anything below gives rule not met

- Compound: "O=C(O)c1ccccc1Nc1cccc(C(F)(F)F)c1"
  Test System: "Aβ42 secretion"
  Label Value: "rule met"
- Compound: "O=C(c1ccccc1)c1ccc2n1CCC2C(=O)O (centres unmarked)"
  Test System: "Aβ42 secretion"
  Label Value: "rule met"
- Compound: "Cc1ccc(Cl)c(Nc2ccccc2C(=O)O)c1Cl"
  Test System: "Aβ42 secretion"
  Label Value: "rule not met"
- Compound: "CC(C)Cc1ccc(C(C)C(=O)O)cc1 (centres unmarked)"
  Test System: "Aβ42 secretion"
  Label Value: "rule met"
- Compound: "Cc1cnc(NC(=O)C2=C(O)c3ccccc3S(=O)(=O)N2C)s1"
  Test System: "Aβ42 secretion"
  Label Value: "rule not met"
- Compound: "Oc1ccc(C=Cc2cc(O)cc(O)c2)cc1"
  Test System: "Aβ42 secretion"
  Label Value: "rule not met"
- Compound: "CS(=O)(=O)Nc1ccc([N+](=O)[O-])cc1OC1CCCCC1"
  Test System: "Aβ42 secretion"
  Label Value: "rule met"
